# Assay Target: human ether-à-go-go-related gene (hERG) potassium channel (human, UniProt Q12809);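 further: peak tail current of the secondary pulse compared with the same well before compound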
# Sequence (Q12809 whole entry, looked up): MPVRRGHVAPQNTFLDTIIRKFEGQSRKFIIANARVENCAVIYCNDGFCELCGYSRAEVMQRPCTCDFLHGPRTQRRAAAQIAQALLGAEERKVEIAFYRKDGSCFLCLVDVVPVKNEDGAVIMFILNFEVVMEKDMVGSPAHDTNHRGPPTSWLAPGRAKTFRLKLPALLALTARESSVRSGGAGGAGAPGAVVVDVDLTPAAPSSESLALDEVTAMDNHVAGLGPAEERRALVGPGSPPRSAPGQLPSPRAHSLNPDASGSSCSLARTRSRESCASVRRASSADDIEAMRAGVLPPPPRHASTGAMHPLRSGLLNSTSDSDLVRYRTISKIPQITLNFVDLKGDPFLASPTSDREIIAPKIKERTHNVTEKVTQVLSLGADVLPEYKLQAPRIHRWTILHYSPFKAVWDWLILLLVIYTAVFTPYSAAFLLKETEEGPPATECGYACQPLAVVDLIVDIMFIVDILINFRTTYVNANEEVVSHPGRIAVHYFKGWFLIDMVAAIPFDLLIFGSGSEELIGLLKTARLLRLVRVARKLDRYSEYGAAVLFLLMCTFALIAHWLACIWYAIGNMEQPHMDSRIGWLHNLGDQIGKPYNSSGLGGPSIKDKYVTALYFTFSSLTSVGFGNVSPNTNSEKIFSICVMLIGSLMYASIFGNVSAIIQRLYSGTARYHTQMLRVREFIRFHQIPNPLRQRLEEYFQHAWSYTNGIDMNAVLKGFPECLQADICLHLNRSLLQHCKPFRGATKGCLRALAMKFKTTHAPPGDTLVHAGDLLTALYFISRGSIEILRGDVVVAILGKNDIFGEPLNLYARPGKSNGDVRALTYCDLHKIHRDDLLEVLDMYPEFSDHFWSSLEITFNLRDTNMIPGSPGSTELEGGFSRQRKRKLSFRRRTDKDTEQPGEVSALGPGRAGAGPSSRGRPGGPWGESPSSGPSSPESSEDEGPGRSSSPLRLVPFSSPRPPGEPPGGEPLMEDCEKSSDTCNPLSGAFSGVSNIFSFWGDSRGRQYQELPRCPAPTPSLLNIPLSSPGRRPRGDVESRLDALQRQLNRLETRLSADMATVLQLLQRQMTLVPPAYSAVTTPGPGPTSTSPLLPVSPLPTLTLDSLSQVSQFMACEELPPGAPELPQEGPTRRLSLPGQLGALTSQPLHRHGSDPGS
# Assay Name: primary screen, population patch clamp on CHO cells stably expressing hERG; higher = less effect of the substance
Hit rate of the full screen: of about 310,000 compounds, about 14,000 (4.5%) showed an effect of 50% or more. Effects have a minus sign here. What follows is part of a selection rich in strong results, with near analogues and random picks from the rest.
Property Name: hERG current change (%, negative = inhibition) at 10uM (%)

structure_notation=Clc1ccc(SCc2nc3ccccc3[nH]2)cc1 unit_of_measure=% readout_value=-11.2
structure_notation=CC1(C)CC(=O)c2c(O)cc(OCC(=O)Nc3ccc(CCO)cc3)cc2O1 unit_of_measure=% readout_value=-21.4
structure_notation=O=C1N(Cc2cccc(Cl)c2)C[C@@H]2C[C@@H](c3cccn3-c3ccccn3)N3CCC[C@@]123 unit_of_measure=% readout_value=-73.5
structure_notation=CN1C(=O)c2cccc(NCCCCCCN3C(=O)c4ccccc4C3=O)c2C1=O unit_of_measure=% readout_value=5.41
structure_notation=O=C(CCNC(=O)c1ccc(Br)cc1)Nc1cccc(S(=O)(=O)N2CCCC2)c1 unit_of_measure=% readout_value=-32.7
structure_notation=CCCCCn1cnnc1SCC(=O)c1ccc2c(c1)OCO2 unit_of_measure=% readout_value=-27.9
structure_notation=COc1ccc(-c2cc3c(=O)n(CC(=O)Nc4cccc(Cl)c4)nc(C)n3n2)cc1 unit_of_measure=% readout_value=14.8
structure_notation=O=C1N(Cc2cccc(Cl)c2)C[C@@H]2C[C@@H](c3cccn3-c3nccs3)N3CCC[C@@]123 unit_of_measure=% readout_value=-68
structure_notation=Cc1c(C(=O)N/N=C/c2ccoc2)cccc1[N+](=O)[O-] unit_of_measure=% readout_value=9.67

* * *

Listed here: items and their measured hERG current change (%, negative = inhibition) at 10uM.
# Assay Target: human ether-à-go-go-related gene (hERG) potassium channel (human, UniProt Q12809);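 further: peak tail current of the secondary pulse compared with the same well before compound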
# Assay Name: primary screen, population patch clamp on CHO cells stably expressing hERG; higher = less effect of the substance
Screen size: about 310,000 compounds; about 14,000 (4.5%) showed an effect of 50% or more. The effect is printed as a negative number. The full list was thinned out, with strong results kept by preference.
Property Name: hERG current change (%, negative = inhibition) at 10uM (%)

compound=CCNC(=O)NC(=O)COC(=O)c1ccccc1SCC(=O)NC(=O)NCC readout_value=3.64
compound=COc1ccc(C(=O)CCN2CCN(c3ccc(OC)cc3)CC2)cc1 readout_value=-73.1
compound=COc1ccc(OC)c(NC(=O)CCN2CCN(c3ccccc3F)CC2)c1 readout_value=-22.1
compound=Cc1cccc(NC(=S)Nc2cccc3ccccc23)c1 readout_value=15.9
compound="OC(CNCc1ccc2c(c1)OCO2)COc1ccc(F)cc1 (stereo not shown)" readout_value=-55.7
compound=COc1ccccc1-c1ccc(SCC(=O)NC2CCCCC2)nn1 readout_value=-72
compound=Cc1cc(Cl)nc(Cl)c1C(=O)NC(=O)NCCC(C)C readout_value=6.83
compound="CCC(=O)c1ccc(OCC(O)CNCCc2ccc(Cl)cc2)cc1 (stereo not shown)" readout_value=-72.1
compound="CC(=O)c1cccc(OCC(O)CNCCc2ccc(Cl)cc2)c1 (stereo not shown)" readout_value=-49
compound=COC(=O)c1ccc(NC(=S)NCCc2cccc(C)c2)cc1 readout_value=-2.3
compound=O=C(CSc1ccccc1)N(c1ccc(Br)cc1)c1nccs1 readout_value=10.8
compound=COc1ccc(OC)c(-c2nnc(SCC(=O)NC3CCCCC3)o2)c1 readout_value=-59.8
compound=O=C(c1ccc(Cl)c(Cl)c1)c1cc(-c2ccccn2)c(N2CCOCC2)s1 readout_value=-29.1
compound=Nc1c(C(=O)c2ccccc2)sc2nsc(SCCN3CCCC3)c12 readout_value=-38.2
compound="OC(CNCc1ccc2c(c1)OCO2)COc1ccccc1 (stereo not shown)" readout_value=-5.74
compound="Cc1ccc(OCC(O)CNCc2ccc(F)cc2)cc1 (stereo not shown)" readout_value=-40.5
compound=COc1ccc(N2CCN(CCC(=O)c3ccc4ccccc4c3)CC2)cc1 readout_value=-11.2
compound=O=C(NCCCN1CCOCC1)c1ccc2ccccc2c1 readout_value=-2.68
compound=COc1cccc(/C=C/C(=O)OCC(=O)NCC2CCCCC2)c1OC readout_value=8.32
compound=O=C(COc1ccc(C(=O)c2ccccc2)cc1)NCc1ccc(F)cc1 readout_value=-6.64
compound=COc1ccc(CNC(=O)C2CCN(c3nccs3)CC2)cc1 readout_value=-31.8
compound=COc1ccccc1-c1ccc(SCC(=O)NC2CCCC2)nn1 readout_value=-24.5
compound="O=C(O)C(=O)O.O=C(c1ccccc1)c1ccc(OCC(O)CNCc2ccc(F)cc2)cc1 (stereo not shown)" readout_value=-68.2
compound=COc1ccc(-c2ccc(SCC(=O)NC3CCCCC3)nn2)cc1OC readout_value=16.4
compound=C/C(=N\OCc1ccc(C#N)cc1)c1ccc(S(=O)(=O)N(C)C)cc1 readout_value=-52.7
compound=O=NN1CCN(c2ccncc2S(=O)(=O)N2CCCCC2)CC1 readout_value=10.6
compound=COc1cccc(-c2nc(N3CCCC3)c3ccccc3n2)c1O readout_value=-5.65
compound=COc1ccc(N2CCN(CCC(N)=O)CC2)cc1 readout_value=3.39
compound=Oc1ccc[nH+]c1SCc1ccccc1.[Br-] readout_value=12.7
compound=COc1ccc(S(N)(=O)=O)cc1C(=O)NCCCN1CCN(c2ccccc2OC)CC1.CS(=O)(=O)O readout_value=2.27
compound=C/C(=N\OCc1ccc(C#N)cc1)c1ccccc1 readout_value=12.1
compound=O=C(O)CSc1nc2ccc(C(=O)c3ccccc3)cc2[nH]1 readout_value=17.2
compound=COc1ccc(C(=O)CCN2CCN(c3ccccc3F)CC2)cc1.Cl readout_value=-71.5
compound=COc1ccccc1N1CCN(CCN(C(=O)c2ccc(F)cc2)c2ccccn2)CC1.Cl readout_value=-78.8
compound=COc1ccc(C(=O)CCN2CCCCCC2)cc1.Cl readout_value=-20
compound="OC(CNCc1ccccc1Cl)COc1ccc(F)cc1 (stereo not shown)" readout_value=-21.3
compound=Cn1c(=O)c2c(nc(SCc3ccc(F)cc3)n2C)n(C)c1=O readout_value=1.9
compound=O=C(c1ccc(Cl)cc1)c1cc(-c2ccccn2)c(N2CCOCC2)s1 readout_value=-54.9
compound="COc1cc(S(=O)(=O)NCC2CCCO2)c(OC)cc1Cl (stereo not shown)" readout_value=10.6
compound=O=C(NCc1ccccc1)c1ccc[n+]([O-])c1 readout_value=30.8
compound=COC(=O)C1=CN(Cc2ccccc2)C=C(C(=O)OC)C1c1cc(F)ccc1F readout_value=-12.6
compound=O=C(c1ccccc1)c1cc(-c2ccccn2)c(N2CCOCC2)s1 readout_value=-29.4
compound="CC(=O)c1ccc(OCC(O)CNCc2ccc3c(c2)OCO3)cc1 (stereo not shown)" readout_value=-26.1
